The compounds listed here are annotated with their Emax.
Target: BRAF^V600E protein (Homo sapiens, UniProt P15056, V600E)
Sequence (P15056 whole entry V600E): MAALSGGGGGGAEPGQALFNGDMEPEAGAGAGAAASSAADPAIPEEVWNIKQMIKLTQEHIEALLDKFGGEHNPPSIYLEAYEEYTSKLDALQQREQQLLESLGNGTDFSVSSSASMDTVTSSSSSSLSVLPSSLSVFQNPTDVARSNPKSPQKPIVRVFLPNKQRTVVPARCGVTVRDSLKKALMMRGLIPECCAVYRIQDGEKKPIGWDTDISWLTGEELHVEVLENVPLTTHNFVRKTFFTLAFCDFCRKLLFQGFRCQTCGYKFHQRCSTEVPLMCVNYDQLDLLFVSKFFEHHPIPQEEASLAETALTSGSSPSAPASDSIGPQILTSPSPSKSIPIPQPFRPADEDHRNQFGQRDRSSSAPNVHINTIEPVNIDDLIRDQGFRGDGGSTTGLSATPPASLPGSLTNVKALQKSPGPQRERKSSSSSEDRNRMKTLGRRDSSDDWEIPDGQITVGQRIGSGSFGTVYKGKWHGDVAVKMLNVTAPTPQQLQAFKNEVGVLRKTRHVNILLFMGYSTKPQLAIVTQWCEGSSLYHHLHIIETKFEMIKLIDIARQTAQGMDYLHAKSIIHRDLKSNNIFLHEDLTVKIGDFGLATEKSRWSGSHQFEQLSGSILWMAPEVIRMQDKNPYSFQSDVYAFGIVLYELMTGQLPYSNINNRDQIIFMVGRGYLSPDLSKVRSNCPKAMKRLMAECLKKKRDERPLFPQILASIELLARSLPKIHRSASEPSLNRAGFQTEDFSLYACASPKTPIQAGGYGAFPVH
Experiment: HiBiT cellular BRAF V600E degradation assay
Format: cell-based
Conditions: A375.10 cells, 24 h incubation; Emax = amount of residual protein remaining in the cell after compound treatment; read-out: HiBit 24 h Emax

Compound	Emax / %
CCN(C)S(=O)(=O)Nc1ccc(F)c(C(=O)c2c[nH]c3ncc(-c4cnc(N5CCC(NC(=O)C6CCN(c7ccc(NC8CCC(=O)NC8=O)cc7F)CC6)CC5)nc4)cc23)c1F (stereo not shown)	7.37
CCN(C)S(=O)(=O)Nc1ccc(F)c(C(=O)c2c[nH]c3ncc(-c4cnc(N5CCN(C(=O)CN6CCC(Nc7ccc8c(C9CCC(=O)NC9=O)nn(C)c8c7)CC6)CC5)nc4)cc23)c1F (stereo not shown)	12
CC(C)S(=O)(=O)Nc1ccc(F)c(C(=O)c2c[nH]c3ncc(-c4ccc(N5CCN(C(=O)CN6CCC(c7ccc(NC8CCC(=O)NC8=O)cc7)CC6)CC5)nc4)cc23)c1F (stereo not shown)	7.97
CCN(C)S(=O)(=O)Nc1ccc(F)c(C(=O)c2c[nH]c3ncc(-c4cnc(N5CCN(C(=O)CN6CCC(N7CCN(C8CCC(=O)NC8=O)C(=O)C7)C(F)(F)C6)CC5)nc4)cc23)c1F (stereo not shown)	7.19
CCN(C)S(=O)(=O)Nc1ccc(F)c(C(=O)c2c[nH]c3ncc(-c4cnc(N5CCN(C(=O)CC6(O)CCN(c7ccc(NC8CCC(=O)NC8=O)cc7F)CC6)CC5)nc4)cc23)c1F (stereo not shown)	8.84
CCN(C)S(=O)(=O)Nc1ccc(F)c(C(=O)c2c[nH]c3ncc(-c4cnc(N5CCN(C(=O)CN6CCC(c7ccc(NC8CCC(=O)NC8=O)cc7)C(F)(F)C6)CC5)nc4)cc23)c1F (stereo not shown)	7.84
CCN(C)S(=O)(=O)Nc1ccc(F)c(C(=O)c2c[nH]c3ncc(-c4ccc(N5CCN(C(=O)CN6CCC(N7CCN(C8CCC(=O)NC8=O)C(=O)C7)C(F)(F)C6)CC5)cc4)cc23)c1F (stereo not shown)	6.28
CCN(C)S(=O)(=O)Nc1ccc(F)c(C(=O)c2c[nH]c3ncc(-c4cnc(N5CCN(C(=O)CC6(O)CCN(c7ccc(NC8CCC(=O)NC8=O)cc7Cl)CC6)CC5)nc4)cc23)c1F (stereo not shown)	8.52
CCN(C)S(=O)(=O)Nc1ccc(F)c(C(=O)c2c[nH]c3ncc(-c4ccc(N5CCN(C(=O)CN6CCC(c7ccc(OC8CCC(=O)NC8=O)cc7)CC6)CC5)nc4)cc23)c1F (stereo not shown)	13
CCN(C)S(=O)(=O)Nc1ccc(F)c(C(=O)c2c[nH]c3ncc(-c4ccc(N5CCN(C(=O)CC6(O)CCN(c7ccc(NC8CCC(=O)NC8=O)cc7F)CC6)CC5)c(C(F)(F)F)c4)cc23)c1F (stereo not shown)	7.02

* * *

Target: BRAF^V600E protein (Homo sapiens, UniProt P15056, V600E)
Assay: HiBiT cellular BRAF V600E degradation assay
Type: cell-based
Conditions: A375.10 cells, 24 h incubation; Emax = amount of residual protein remaining in the cell after compound treatment; read-out: HiBit 24 h Emax
Where a name gives a salt, the structure may show the parent alone.
The molecules listed here are annotated with their Emax.
Recorded Metric: Emax (%)

Molecule	Quantitative Readout
CCN(C)S(=O)(=O)Nc1ccc(F)c(C(=O)c2c[nH]c3ncc(-c4ccc(N5CCN(C(=O)CN6CCN(c7ccc(NC8CCC(=O)NC8=O)cc7)CC6)CC5)nc4)cc23)c1F (stereo not shown) [Example A11]	11.6
CCN(C)S(=O)(=O)Nc1cc(F)cc(C(=O)c2c[nH]c3ncc(-c4ccc(N5CCN(C(=O)CC6(O)CCN(c7ccc(NC8CCC(=O)NC8=O)cc7F)CC6)CC5)nc4)cc23)c1F (stereo not shown) [Example 207]	6.98
CCN(C)S(=O)(=O)Nc1ccc(F)c(C(=O)c2c[nH]c3ncc(-c4cnc(N5CC[C@H](C(=O)N6CCC(c7ccc(NC8CCC(=O)NC8=O)cc7)CC6)C5)nc4)cc23)c1F (stereo partly shown) [Example 130]	12.9
CCN(C)S(=O)(=O)Nc1ccc(F)c(C(=O)c2c[nH]c3ncc(-c4cnc(N5CCN(C(=O)CC6(O)CCN(c7ccc(NC8CCC(=O)NC8=O)cn7)CC6)CC5)nc4)cc23)c1F (stereo not shown) [Example 57]	18.2
CCN(C)S(=O)(=O)Nc1ccc(F)c(C(=O)c2c[nH]c3ncc(-c4ccc(N5CCC(NCC(=O)N6CCC(c7ccc(NC8CCC(=O)NC8=O)cc7)CC6)CC5)cc4)cc23)c1F (stereo not shown) [Example A98, hydrochloride]	12
CCN(C)S(=O)(=O)Nc1ccc(F)c(C(=O)c2c[nH]c3ncc(-c4ccc(N5CCN(C(=O)CC6(O)CCN(c7ccc(NC8CCC(=O)NC8=O)cc7F)CC6)CC5)cc4C)cc23)c1F (stereo not shown) [Example 189]	14.9
CCN(C)S(=O)(=O)Nc1cccc(C(=O)c2c[nH]c3ncc(-c4ccc(N5CCN(C(=O)CN6CCC(c7ccc(NC8CCC(=O)NC8=O)cc7)C(F)(F)C6)CC5)nc4)cc23)c1F (stereo not shown) [Example 110]	7.75
CCN(C)S(=O)(=O)Nc1ccc(F)c(C(=O)c2c[nH]c3ncc(-c4cnc(N5CCN(C(=O)CC6(O)CCN(c7ccc(NC8CCC(=O)NC8=O)cc7)CC6)CC5)nc4)cc23)c1F (stereo not shown) [Example 38]	13.4
CCN(C)S(=O)(=O)Nc1ccc(F)c(C(=O)c2c[nH]c3ncc(-c4ccc(N5CCN(C(=O)CN6CCC(c7ccc(O[C@@H]8CCC(=O)NC8=O)cc7)CC6)CC5)nc4)cc23)c1F [Example A122]	9
CCN(C)S(=O)(=O)Nc1ccc(Cl)c(C(=O)c2c[nH]c3ncc(-c4ccc(N5CCN(C(=O)CC6(O)CCN(c7ccc(NC8CCC(=O)NC8=O)cc7F)CC6)CC5)nc4)cc23)c1F (stereo not shown) [Example 201]	6.67

* * *

Target: BRAF^V600E protein (Homo sapiens, UniProt P15056, V600E)
Assay: HiBiT cellular BRAF V600E degradation assay
Type: cell-based
Settings: A375.10 cells (HiBiT tag knocked in at N-terminal of BRAF V600E), 24 h incubation; concentration at which 50% of total cellular BRAF V600E is degraded
Where a name gives a salt, the structure may show the parent alone.
Recorded Metric: DC50 (nM)

Compound	Recorded Metric	Quantitative Readout
[2H][C@]1(c2ccc(N3CCC(O)(CC(=O)N4CCN(c5ncc(-c6cnc7[nH]cc(C(=O)c8c(F)ccc(NS(=O)(=O)N(C)CC)c8F)c7c6)cn5)CC4)CC3)c(F)c2)CCC(=O)NC1=O (single isomer, unassigned) [Example 158d]	DC50	205
CCN(C)S(=O)(=O)Nc1ccc(F)c(C(=O)c2c[nH]c3ncc(-c4cnc(N5CCN(C(=O)CN6CCN(c7ccc(NC8CCC(=O)NC8=O)cc7)CC6)CC5)nc4)cc23)c1F (stereo not shown) [Example 19]	DC50	8.57
CCN(C)S(=O)(=O)Nc1ccc(F)c(C(=O)c2c[nH]c3ncc(-c4cnc(N5CCC(C(=O)N6CCC(c7ccc(NC8CCC(=O)NC8=O)cc7)CC6)CC5)nc4)cc23)c1F (stereo not shown) [Example A94]	DC50	13
CCN(C)S(=O)(=O)Nc1ccc(F)c(C(=O)c2c[nH]c3ncc(-c4cnc(N5CCN(C(=O)CN6CCC(Nc7ccc8c(C9CCC(=O)NC9=O)nn(C)c8c7)CC6)CC5)nc4)cc23)c1F (stereo not shown)	DC50	5.81
CCN(C)S(=O)(=O)Nc1cccc(C(=O)c2c[nH]c3ncc(-c4cnc(N5CCN(C(=O)CC6(O)CCN(c7ccc(NC8CCC(=O)NC8=O)cc7Cl)CC6)CC5)nc4)cc23)c1F (stereo not shown)	DC50	3.04
CCN(C)S(=O)(=O)Nc1ccc(F)c(C(=O)c2c[nH]c3ncc(-c4ccc(N5CCC(NCC(=O)N6CCC(c7ccc(NC8CCC(=O)NC8=O)cc7)CC6)CC5)cc4)cc23)c1F (stereo not shown) [Example A98, hydrochloride]	DC50	12
CCN(C)S(=O)(=O)Nc1ccc(F)c(C(=O)c2c[nH]c3ncc(-c4ccc(N5CCN(C(=O)CN6Cc7ccc(NC8CCC(=O)NC8=O)cc7C6)CC5)nc4)cc23)c1F (stereo not shown)	DC50	14.6
CCN(C)S(=O)(=O)Nc1ccc(F)c(C(=O)c2c[nH]c3ncc(-c4ccc(N5CCN(C(=O)CC6(O)CCN(c7ccc8c(N9CCC(=O)NC9=O)nn(C)c8c7)CC6)CC5)cc4)cc23)c1F	DC50	2.1
CCN(C)S(=O)(=O)Nc1ccc(F)c(C(=O)c2c[nH]c3ncc(-c4ccc(CN5CCC(C(=O)N6CCC(c7ccc(OC8CCC(=O)NC8=O)cc7)CC6)C5)cc4)cc23)c1F (stereo not shown)	DC50	138
CCN(C)S(=O)(=O)Nc1ccc(F)c(C(=O)c2c[nH]c3ncc(-c4cnc(N5CCN(C(=O)CN6CCC(c7ccc(NC8CCC(=O)NC8=O)c(F)c7)CC6)CC5)nc4)cc23)c1F (stereo not shown)	DC50	2.76
O=C1CCC(Nc2ccc(CC(=O)N[C@H]3C[C@H](OC4CCN(c5ccc(-c6cnc7[nH]cc(C(=O)c8c(F)ccc(NS(=O)(=O)N9CCCC9)c8F)c7c6)cn5)CC4)C3)cc2)C(=O)N1 (stereo partly shown)	DC50	24
CCN(C)S(=O)(=O)Nc1ccc(F)c(C(=O)c2c[nH]c3ncc(-c4cnc(N5CCN(C(=O)CN6CCC(c7ccc(NC8CCC(=O)NC8=O)cc7C#N)CC6)CC5)nc4)cc23)c1F (stereo not shown)	DC50	11.7
CCN(C)S(=O)(=O)Nc1ccc(F)c(C(=O)c2c[nH]c3ncc(-c4ccc(CN5CCN(CC(=O)N6CCC(c7ccc(NC8CCC(=O)NC8=O)cc7)CC6)CC5)cc4)cc23)c1F (stereo not shown)	DC50	21.2
O=C1CCC(Nc2ccc(C3CCN(C(=O)NC4CCN(Cc5ccc(-c6cnc7[nH]cc(C(=O)c8c(F)ccc(NS(=O)(=O)N9CCCC9)c8F)c7c6)cc5)CC4)CC3)cc2)C(=O)N1 (stereo not shown)	DC50	27
CCN(C)S(=O)(=O)Nc1ccc(F)c(C(=O)c2c[nH]c3ncc(-c4cnc(N5CCN(C(=O)CC6(O)CCN(c7ccc(NC8CCC(=O)NC8=O)cc7F)C6)CC5)nc4)cc23)c1F (stereo not shown)	DC50	5.51
O=C1CCC(Nc2ccc(N3CCN(CC(=O)N4CCN(c5ccc(-c6cnc7[nH]cc(C(=O)c8c(F)ccc(NS(=O)(=O)N9CC[C@@H](F)C9)c8F)c7c6)cc5)CC4)CC3)cc2)C(=O)N1 (stereo partly shown)	DC50	7
CCN(C)S(=O)(=O)Nc1ccc(F)c(C(=O)c2c[nH]c3ncc(-c4cnc(N5CCN(C(=O)CN6CCC(c7ccc8c(N9CCC(=O)NC9=O)nn(C)c8c7)C(F)(F)C6)CC5)nc4)cc23)c1F (stereo not shown)	DC50	3.75
CCN(C)S(=O)(=O)Nc1ccc(F)c(C(=O)c2c[nH]c3ncc(-c4cnc(N5CCN(C(=O)CC6(O)CCN(c7ccc(N[C@H]8CCC(=O)NC8=O)cc7Cl)CC6)CC5)nc4)cc23)c1F	DC50	2.28
CCN(C)S(=O)(=O)Nc1ccc(F)c(C(=O)c2c[nH]c3ncc(-c4ccc(N5CCN(C(=O)CN6CCC(Nc7ccc8c(C9CCC(=O)NC9=O)nn(C)c8c7)CC6)CC5)nc4)cc23)c1F (stereo not shown)	DC50	6.26
